- system tested: Cathepsin K (Homo sapiens)
- Sequence (P43235 115-329, species assumed): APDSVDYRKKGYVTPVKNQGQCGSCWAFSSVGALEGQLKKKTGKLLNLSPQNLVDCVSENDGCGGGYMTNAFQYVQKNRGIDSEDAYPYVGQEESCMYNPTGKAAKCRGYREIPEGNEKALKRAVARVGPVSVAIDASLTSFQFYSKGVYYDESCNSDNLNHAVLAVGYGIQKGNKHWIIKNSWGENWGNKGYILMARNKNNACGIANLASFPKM
- protocol: Cathepsin K inhibition assay (fluorogenic peptide substrate); selectivity ratio vs cathepsin S
- Assay type: biochemical
- settings: ratio of cathepsin K inhibition constant to cathepsin S inhibition constant; Table II
observable: Selectivity for Cat. S over Cat. K

Illustrative cases are given below, each with its answer.
>>> data_value("COc1ccc(NCCNC(=O)[C@H](Cc2ccccc2)NC(=O)Nc2ccc(C(C)=O)cc2)cc1 [Compound 103]")
"++ (++, >100)"
>>> data_value("COc1ccc(NCCNC(=O)C(NC(=O)c2cccc(C)c2)c2cccc3ccccc23)cc1 (stereo not drawn) [Compound 218]")
"+++ (+++, >1000)"
>>> data_value("COc1ccc(NCCNC(=O)[C@H](CC2CCCCC2)NC(=O)c2cccc(CN)c2)cc1 [Compound 199]")
"++ (++, >100)"
>>> data_value("COc1ccc(NCCNC(=O)[C@H](Cc2cccc3ccccc23)NC(=O)c2cccc(C)c2)cc1 [Compound 258]")
"+++ (+++, >1000)"
>>> data_value("COc1ccc(NCCNC(=O)[C@H](Cc2ccc(-c3cc(OC)ccc3OC)cc2)NC(=O)c2cccc(C)c2)cc1 [Compound 285]")
"++ (++, >100)"
>>> data_value("O=C(NCCNc1ccc(F)cc1)[C@H](CC1CCCCC1)NC(=O)[C@H](O)c1ccccc1 [Compound 317]")
"++ (++, >100)"

# input for lookup
// COc1ccc(NCCNC(=O)[C@H](CC2CCCCC2)NC(=O)c2ccccc2F)cc1 [Compound 145] : Selectivity for Cat. S over Cat. K value = +++ (+++, >1000)
